System: Fibroblast
Experiment: Incucyte cell viability with human fibroblast; further: unitless GR value; below 1 slowed growth and below 0 cell loss
Type: toxicity, cell-based
Conditions: 24 h, 10 µM, compound concentration 10 uM, replicate number 1
Endpoint label: Growth Rate
Numbers only.

// known answers, use as guide
{"Compound": "CN(C)C(=O)Cn1cc(-c2nc([C@@](C)(c3ccc(-c4cnc(N)nc4)cc3)C3CC3)no2)cn1", "Growth Rate": 0.6}
{"Compound": "CCc1ncnc(N2CCN(C(C)=O)CC2)c1C#Cc1ccc(N)nc1.Cl.Cl", "Growth Rate": 0.61}
{"Compound": "Cc1cc(CN)cc(C)c1-c1ncn(C)c1-c1ccnc2cc(F)ccc12.Cl", "Growth Rate": 0.89}
{"Compound": "C=CC(=O)Nc1cccc(C)c1Nc1ncc2cc(-c3c(Cl)c(OC)cc(OC)c3Cl)ccc2n1", "Growth Rate": 0.05}
{"Compound": "CCCCCCC(Sc1nc(Cl)cc(NCc2ccc(-c3ccccc3)cc2)n1)C(=O)O (stereo not given)", "Growth Rate": 0.91}

List reported Growth Rate for each of these compounds:
1. CC(C)c1nc2c(c3c1[C@H](c1ccc(C(F)(F)F)cc1)OC31CCOCC1)[C@H](O)CC(C)(C)C2
2. CCOC(=O)C1Cc2ccccc2CN1C(=O)c1ccc(SC)s1 (stereo not given)
3. CCN1CCN(Cc2ccc(NC(=O)c3ccc(C)c(NC(=O)c4cncc(-c5cccs5)c4)c3)cc2C(F)(F)F)CC1
4. Cc1cccc(F)c1C(=O)Nc1cnc(-c2cc3c(cc2Cl)OC(F)(F)O3)cn1
5. C[C@@H](COCCC(=O)N1CCN(c2ncc(C(F)(F)F)cn2)CC1)Nc1cn[nH]c(=O)c1C(F)(F)F

OUTPUT:
[0.08, 0.86, -0.74, 0.84, 0.39]
